System: MDRPA
Experiment: MIC determination, microdilution broth method;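 further: broth microdilution per NCCLS recommendations, testing Pithecellobium clypearia water or ethanol extracts against multidrug-resistant Pseudomonas aeruginosa, with MIC50 and MIC90 derived statistically from individual MICs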
Conditions: Pseudomonas aeruginosa
# MIC90 per entry

[
  {
    "compound": "C[C@H]1COc2c(N3CCN(C)CC3)c(F)cc3c(=O)c(C(=O)O)cn1c23 [LVX, Levofloxacin]",
    "experimental_system": "MDRPA",
    "MIC90 / µg/mL": 32
  },
  {
    "compound": "NCC[C@H](O)C(=O)N[C@@H]1C[C@H](N)[C@@H](O[C@H]2O[C@H](CN)[C@@H](O)[C@H](O)[C@H]2O)[C@H](O)[C@H]1O[C@H]1O[C@H](CO)[C@@H](O)[C@H](N)[C@H]1O [AMK, Amikacin]",
    "experimental_system": "MDRPA",
    "MIC90 / µg/mL": 32
  },
  {
    "compound": "CCN1CCN(C(=O)N[C@@H](C(=O)N[C@@H]2C(=O)N3C(C(=O)O)=C(CSc4nnnn4C)CS[C@H]23)c2ccc(O)cc2)C(=O)C1=O [CFP, Cefoperazone]",
    "experimental_system": "MDRPA",
    "MIC90 / µg/mL": 512
  },
  {
    "compound": "CC(C)(O/N=C(\\C(=O)N[C@@H]1C(=O)N2C(C(=O)[O-])=C(C[n+]3ccccc3)CS[C@H]12)c1csc(N)n1)C(=O)O [CAZ, Ceftazidime]",
    "experimental_system": "MDRPA",
    "MIC90 / µg/mL": 256
  },
  {
    "compound": "C[C@@H](O)[C@H]1C(=O)N2C(C(=O)O)=C(SCCN=CN)C[C@H]12 [IMP, imipenem]",
    "experimental_system": "MDRPA",
    "MIC90 / µg/mL": 64
  }
]
